Measured koff, listed per entry for reference.
assay system: T1, Recombinant MBP-mutCALR Type 1 fusion protein (human)
T1 construct: custom made at Cepter; also called recombinant mutCALR protein
method: SPR, IgG captured, 1:1 fit, Exp. 1
Use s⁻¹ as the unit, but write only the number.

>>> number("anti-mutCALR antibody clone 45 (antibody, human IgG1, lambda, V domains shown, human IgG1) VH: EVQLVQSGAEVKKPGSSVKVSCKASGGTFSSYAISWVRQAPGQGLEWMGGIIPIFGTANYAQKFQGRVTITADESTSTAYMELSSLRSEDTAVYYCASSPLRGSGWYWHYYYGMDVWGQGTTVTVSS VL: SYVLTQPLSVSVAPGQTARITCGGNNIGRKSVHWYQQKPGQAPVLVIYRDSNRPSGIPERFSGSNSGNTATLTISRAQAGDEADYYCQVWDSSTVVFGGGTKLTVLG")
0.0011

// below: koff requested for another binder
Task item: // lookup koff for anti-mutCALR antibody clone 47 (antibody, human IgG1, lambda, V domains shown, human IgG1) VH: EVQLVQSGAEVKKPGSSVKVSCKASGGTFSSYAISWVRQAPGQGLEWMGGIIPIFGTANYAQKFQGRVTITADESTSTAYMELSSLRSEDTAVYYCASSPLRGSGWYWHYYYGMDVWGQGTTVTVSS VL: SYELTQPPSVSVAPGKTARITCGGNKIGTKSVHWYQQKPGQAPVLVIYRDSNRPSGIPERFSGSNSGNTATLTISRAQAGDEADYYCQVWDSSTVVFGGGTKLTVLG
Reply: 0.000772
